Hello, the source for this data is patent US8975398B2, in case you need it.

# assay target: NAMPT (Homo sapiens, UniProt P43490)
# Sequence (P43490 whole entry): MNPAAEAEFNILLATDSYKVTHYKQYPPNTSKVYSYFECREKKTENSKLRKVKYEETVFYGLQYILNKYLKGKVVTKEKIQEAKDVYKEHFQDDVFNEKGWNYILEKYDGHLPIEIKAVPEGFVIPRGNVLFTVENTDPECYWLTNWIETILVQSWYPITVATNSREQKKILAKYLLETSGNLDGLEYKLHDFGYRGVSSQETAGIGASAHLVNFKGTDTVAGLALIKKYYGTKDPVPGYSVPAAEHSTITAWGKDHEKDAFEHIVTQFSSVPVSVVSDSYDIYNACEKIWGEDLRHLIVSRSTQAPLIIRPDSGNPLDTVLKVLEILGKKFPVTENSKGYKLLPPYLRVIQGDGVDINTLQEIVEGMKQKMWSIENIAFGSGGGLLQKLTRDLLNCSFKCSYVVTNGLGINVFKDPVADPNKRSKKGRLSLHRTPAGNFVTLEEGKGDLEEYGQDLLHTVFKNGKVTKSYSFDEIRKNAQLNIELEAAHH
Field: IC50. Provide a value for each of the molecules that follow.
Give bare numbers, in nM.

INSERT INTO assay_data (substance_smiles, assay_metric, experimental_value) VALUES
  ('CCOCCC(=O)N1CCC(c2ccc(NC(=O)C3CN(c4cccnn4)C3)cc2)CC1', 'IC50', 0.883),
  ('Cc1ncccc1N1CC(C(=O)Nc2ccc(C3CCN(C(=O)c4ccccc4F)CC3)cc2)C1', 'IC50', 43.8),
  ('Cc1ncccc1N1CC(C(=O)Nc2ccc(C3CCN(C(=O)CN4CCCC4)CC3)cc2)C1', 'IC50', 206),
  ('O=C(Nc1ccc(C2CCN(C(=O)[C@@H]3CCCO3)CC2)cc1)C1CN(c2cccnc2)C1', 'IC50', 0.518),
  ('CC(=O)N1CCC(Oc2ccc(NC(=O)C3CN(c4cccnn4)C3)cc2)CC1', 'IC50', 0.916),
  ('O=C(Nc1ccc(C2CCN(C(=O)C3(c4ccccc4)CC3)CC2)cc1)C1CN(c2cccnn2)C1', 'IC50', 1.13);

Now take the following molecule into account.
Q. Which IC50 reading was recorded for the molecule O=C(Nc1ccc(C2CCN(C(=O)c3ccccc3)CC2)cc1)[C@H]1CCN(c2cccnn2)C1 ?
A. 3.96

###

Field: pIC50. Provide a value for each of the compounds that follow.
# assay target: NAMPT (human, recombinant, C-terminally His-tagged) (Homo sapiens)
# Sequence (P43490 whole entry): as above
# test protocol: Time-Resolved Fluorescence Resonance Energy Transfer (TR-FRET) Binding Assay of NAMPT
# condition info: 6.8 nM NAMPT, 200 nM probe, equilibrated 3 hours, absence of substrates
One number for each entry, as −log10 of the molar value.

Please review the following examples before continuing.
INSERT INTO measurements (compound, assay_target, experimental_value) VALUES
  ('O=C(Nc1ccc(OC2CCN(C(=O)C3CCOCC3)CC2)cc1)C1CN(c2ccnnc2)C1', 'NAMPT (human, recombinant, C-terminally His-tagged) (Homo sapiens)', 6.95),
  ('O=C(Nc1ccc(C2CCN(C(=O)CN3CCCC3)CC2)cc1)C1CN(c2cccnc2)C1', 'NAMPT (human, recombinant, C-terminally His-tagged) (Homo sapiens)', 6.53),
  ('CC[C@H](C)C(=O)N1CCC(Oc2ccc(NC(=O)[C@H]3CCN(c4cccnc4)C3)cc2)CC1', 'NAMPT (human, recombinant, C-terminally His-tagged) (Homo sapiens)', 5.93),
  ('CC(C)CN1CCC(Oc2ccc(NC(=O)C3CN(c4cccnc4)C3)cc2)CC1', 'NAMPT (human, recombinant, C-terminally His-tagged) (Homo sapiens)', 5.72),
  ('COc1ncccc1N1CC(C(=O)Nc2ccc(C3CCN(C(=O)C(C)(C)O)CC3)cc2)C1', 'NAMPT (human, recombinant, C-terminally His-tagged) (Homo sapiens)', 6.65);

Now take the following compound into account.
Q. Which pIC50 reading was recorded for the compound O=C(Nc1ccc(OC2CCN(C(=O)C3CCCO3)CC2)cc1)C1CN(c2ccnnc2)C1 (stereo not drawn) ?
A. 6.82
